- MEASUREMENT_DESCRIPTION: Cytotoxicity against mouse RAW264.7 cells assessed as inhibition of cell viability at 50 ug/ml after 72 hrs by MTT assay relative to control
- Type: cell-based
- MEASUREMENT_CONTEXT: read-out: INH
# cytotoxicity at 72 h, 50 ug/ml annotations
Field format: number, assumed %, no unit text.

| ENTRY_SMILES | MEASURE | QUANTITY_UNIT | OBSERVED |
| --- | --- | --- | --- |
| O=C(Nc1ccc(Br)cc1)c1nc2cc(Cl)ccc2s1 | cytotoxicity at 72 h, 50 ug/ml | % | 53.1 |
| O=C(Nc1cccc(F)c1)c1nc2cc(Cl)ccc2s1 | cytotoxicity at 72 h, 50 ug/ml | % | 29.1 |
| COc1ccccc1NC(=O)c1nc2ccccc2s1 | cytotoxicity at 72 h, 50 ug/ml | % | 16.7 |
| O=C(Nc1ccc(C(F)(F)F)cc1)c1nc2cc(Cl)ccc2s1 | cytotoxicity at 72 h, 50 ug/ml | % | 41 |
| O=C(Nc1cccc(F)c1)c1nc2ccccc2s1 | cytotoxicity at 72 h, 50 ug/ml | % | 20.9 |
| COc1ccc(NC(=O)c2nc3ccccc3s2)cc1 | cytotoxicity at 72 h, 50 ug/ml | % | 24.6 |
| O=C(Nc1ccc(Cl)cc1)c1nc2cc(Cl)ccc2s1 | cytotoxicity at 72 h, 50 ug/ml | % | 28.9 |
| Cc1cc(C)c(NC(=O)c2nc3ccccc3s2)c(C)c1 | cytotoxicity at 72 h, 50 ug/ml | % | 17.9 |

Value of measured cytotoxicity at 72 h, 50 ug/ml for the entry COc1cccc(NC(=O)c2nc3cc(C(F)(F)F)ccc3s2)c1 : 26.8

Value of measured cytotoxicity at 72 h, 50 ug/ml for the entry O=C(Nc1ccc(C(F)(F)F)cc1)c1nc2ccccc2s1 : 13.6

----------
- MEASUREMENT_DESCRIPTION: Cytotoxicity against mouse RAW264.7 cells assessed as inhibition of cell viability at 50 ug/ml after 72 hrs by MTT assay relative to control
- Type: cell-based
- MEASUREMENT_CONTEXT: read-out: INH
# class assignment by measured cytotoxicity at 72 h, 50 ug/ml: bin 0: < 20%; bin 1: ≥ 20% and < 40%; bin 2: ≥ 40%

| ENTRY_SMILES | LABEL_CLASS |
| --- | --- |
| O=C(Nc1cccc([N+](=O)[O-])c1)c1nc2ccccc2s1 | bin 1 |

Turning to the following molecule.
Query: Just checking, what class would you give COc1cc(NC(=O)c2nc3cc(C(F)(F)F)ccc3s2)cc(OC)c1OC here?
Response: bin 1

----------
- MEASUREMENT_DESCRIPTION: Cytotoxicity against mouse RAW264.7 cells assessed as inhibition of cell viability at 50 ug/ml after 72 hrs by MTT assay relative to control
- Format: cell-based
- MEASUREMENT_CONTEXT: read-out: INH
# class assignment by measured cytotoxicity at 72 h, 50 ug/ml: low: < 20%; intermediate: ≥ 20% and < 40%; high: ≥ 40%

Answered cases to consult:
| ENTRY_SMILES | LABEL_CLASS |
| --- | --- |
| Cc1cccc(NC(=O)c2nc3cc(Cl)ccc3s2)c1 | high |
| O=C(Nc1ccc([N+](=O)[O-])cc1)c1nc2ccccc2s1 | intermediate |

Query: Just checking, what class would you give Cc1ccc(NC(=O)c2nc3cc(C(F)(F)F)ccc3s2)cc1 here?
Response: high

Query: Just checking, what class would you give COc1cccc(NC(=O)c2nc3cc(Cl)ccc3s2)c1 here?
Response: low

Query: Just checking, what class would you give O=C(Nc1ccccc1F)c1nc2ccccc2s1 here?
Response: intermediate

Query: Just checking, what class would you give Cc1cccc(NC(=O)c2nc3cc(C(F)(F)F)ccc3s2)c1 here?
Response: intermediate

Query: Just checking, what class would you give COc1ccc(NC(=O)c2nc3cc(C(F)(F)F)ccc3s2)cc1 here?
Response: intermediate

Query: Just checking, what class would you give O=C(Nc1ccc(N2CCOCC2)cc1)c1nc2ccccc2s1 here?
Response: low

Query: Just checking, what class would you give O=C(Nc1ccccc1F)c1nc2cc(Cl)ccc2s1 here?
Response: low

Query: Just checking, what class would you give COc1cc(NC(=O)c2nc3ccccc3s2)cc(OC)c1OC here?
Response: intermediate

Query: Just checking, what class would you give COc1ccccc1NC(=O)c1nc2cc(C(F)(F)F)ccc2s1 here?
Response: high

Query: Just checking, what class would you give O=C(Nc1ccc(F)cc1)c1nc2cc(Cl)ccc2s1 here?
Response: intermediate

Origin of the recorded values: ChEMBL document CHEMBL4152302
